molecular target: hERG (Homo sapiens, UniProt Q12809); test: CVS / cardio tox hERG (DOF); format: binding; conditions: DOF; read-out: Cardio tox hERG(DOF) (IC50)
Sequence (Q12809 whole entry): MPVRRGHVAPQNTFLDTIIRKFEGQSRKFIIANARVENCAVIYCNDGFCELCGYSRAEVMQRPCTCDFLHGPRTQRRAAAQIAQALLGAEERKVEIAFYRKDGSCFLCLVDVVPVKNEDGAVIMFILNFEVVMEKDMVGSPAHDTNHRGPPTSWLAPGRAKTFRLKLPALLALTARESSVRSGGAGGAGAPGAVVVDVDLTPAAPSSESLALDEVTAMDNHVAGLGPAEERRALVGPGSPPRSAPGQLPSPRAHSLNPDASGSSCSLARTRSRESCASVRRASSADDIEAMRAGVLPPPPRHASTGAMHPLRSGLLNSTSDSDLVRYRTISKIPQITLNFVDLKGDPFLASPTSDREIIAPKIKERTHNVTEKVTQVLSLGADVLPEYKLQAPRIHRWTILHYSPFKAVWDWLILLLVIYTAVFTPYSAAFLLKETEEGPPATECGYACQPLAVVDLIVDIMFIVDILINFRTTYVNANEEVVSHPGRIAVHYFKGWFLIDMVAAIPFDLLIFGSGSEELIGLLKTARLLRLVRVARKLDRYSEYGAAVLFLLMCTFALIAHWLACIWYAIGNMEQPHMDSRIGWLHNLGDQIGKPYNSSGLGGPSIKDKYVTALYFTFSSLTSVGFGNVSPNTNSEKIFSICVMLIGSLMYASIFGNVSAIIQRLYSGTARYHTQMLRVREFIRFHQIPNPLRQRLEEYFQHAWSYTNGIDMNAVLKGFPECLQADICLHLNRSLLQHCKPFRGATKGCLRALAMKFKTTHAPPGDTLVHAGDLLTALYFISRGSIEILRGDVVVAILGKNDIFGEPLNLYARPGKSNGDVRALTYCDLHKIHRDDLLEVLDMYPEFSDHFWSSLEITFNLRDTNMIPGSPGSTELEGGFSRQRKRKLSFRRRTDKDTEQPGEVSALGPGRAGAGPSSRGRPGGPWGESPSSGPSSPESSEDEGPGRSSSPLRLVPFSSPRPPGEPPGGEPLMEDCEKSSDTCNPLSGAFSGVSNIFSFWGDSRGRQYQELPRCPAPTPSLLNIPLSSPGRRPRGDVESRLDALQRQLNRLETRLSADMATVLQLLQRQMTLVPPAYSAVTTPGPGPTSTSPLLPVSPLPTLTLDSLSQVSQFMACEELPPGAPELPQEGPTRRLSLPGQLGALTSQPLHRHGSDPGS
Measured IC50, listed per entry for reference.

molecule	IC50
Cc1c(-c2cn3ccc(Oc4ccc(OC(F)(F)F)cc4)cc3n2)[nH]c2ccccc2c1=O [Compound 29]	~9.1 µM
Cc1c(-c2nc3ccc(-c4ccc(OC(F)(F)F)nc4)cn3n2)[nH]c2ccccc2c1=O [Compound 26]	> 10 µM
Cc1c(-c2nc3ccc(-c4ccc(C(F)(F)F)cc4)cn3n2)[nH]c2ccccc2c1=O [Compound 4]	> 10 µM
Cc1c(-c2nc3ccc(C(F)(F)F)cn3n2)[nH]c2ccccc2c1=O [Compound 19]	> 10 µM
